Data origin, for the record: the supplement of paper PMC12669032

Test system: Bifidobacterium longum subsp. longum
Experimental Protocol: growth AUC relative to DMSO control (median of replicates) (fraction); higher = more growth (less inhibition), active = hit call of the paper
Measurement Context: 20 µM; 24 h
Parameter Measured: growth AUC

Prompt line: Which growth AUC reading was recorded for the compound COc1ccc(C(c2ccc(OC)cc2)C(Cl)(Cl)Cl)cc1 ?
Response line: 0.926 (inactive)

Prompt line: Entry CCOP(=O)(SC(C)CC)SC(C)CC (centres undefined) : reported growth AUC = ?
Response line: 0.97 (inactive)

----------
System: Parabacteroides merdae
Experimental Protocol: growth AUC relative to DMSO control (median of replicates) (fraction); higher = more growth (less inhibition), active = hit call of the paper;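 active = AUC reduced over 20% with Padj below 0.05 in at least 2 of 3 replicates; inactive = otherwise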
Measurement Context: 20 µM; 24 h
Thanks in advance; please answer with one of these: TRUE for active, FALSE for inactive

Prompt line: Short answer needed: outcome of this test for Cc1cnc2c(C(=O)O)c(Cl)ccc2c1 ?
Response line: FALSE

Prompt line: Recorded test call requested for CNC(=O)O/N=C/C(C)(C)S(C)(=O)=O
Response line: FALSE

Continuing:
Prompt line: Fill in: this test's call for CC(=O)O.NC(N)=NCCCCCCCCNCCCCCCCCN=C(N)N is ___
Response line: TRUE

Prompt line: Record request — test call for CCSC(=O)N1CCCCCC1
Response line: FALSE

Prompt line: Field: outcome | Entry: Clc1cccc(C(Cl)(Cl)Cl)n1
Response line: FALSE

Prompt line: Which outcome was assigned to COCCOC(=O)C(C#N)(C(=O)c1ccccc1C(F)(F)F)c1ccc(C(C)(C)C)cc1 (stereo not given) in this test?
Response line: FALSE

Prompt line: Look up the recorded call for CCNC(=O)NC(=O)/C(C#N)=N/OC in this test.
Response line: FALSE

Prompt line: Any idea what this test logged for CCCN(CCC)C(=O)SCc1ccccc1 ?
Response line: FALSE

Prompt line: // param item: OCC1C(CO)C2(Cl)C(Cl)=C(Cl)C1(Cl)C2(Cl)Cl (stereo not given) ; yields the recorded call
Response line: FALSE

Prompt line: Test call, this compound: CC(C)Oc1cc(-n2nc(C(C)(C)C)oc2=O)c(Cl)cc1Cl
Response line: FALSE

----------
Measured growth AUC accompanies every entry in the list below.
System: Roseburia intestinalis
Experimental Protocol: growth AUC relative to DMSO control (median of replicates) (fraction); higher = more growth (less inhibition), active = hit call of the paper
Measurement Context: 20 µM; 24 h
Give the figure by itself; no unit, no explanation.

Prompt line: Could you tell me which growth AUC is on file for CC1(C)C(C=C(Cl)Cl)C1C(=O)OC(C#N)c1cccc(Oc2ccccc2)c1 (stereo not drawn) ?
Response line: 0.871

Prompt line: Entry CC1(C)[C@H](C=C(Cl)Cl)[C@H]1C(=O)OCc1c(F)c(F)cc(F)c1F has what growth AUC?
Response line: 0.946

Could you now look at the following molecule, please?
Prompt line: Look up growth AUC for this molecule: O=S(=O)(c1ccc(O)cc1)c1ccc(O)cc1
Response line: 1

----------
This section presents compounds with their documented growth AUC values.
System: Fusobacterium nucleatum subsp. animalis
Experimental Protocol: growth AUC relative to DMSO control (median of replicates) (fraction); higher = more growth (less inhibition), active = hit call of the paper
Measurement Context: 20 µM; 24 h
Please respond with just the number, no unit label.

Prompt line: Fill in: growth AUC of Cc1c(F)c(F)c(COC(=O)[C@@H]2[C@H](/C=C(\Cl)C(F)(F)F)C2(C)C)c(F)c1F (mixture of isomers) is ___
Response line: 1

Further cases:
Prompt line: Need growth AUC, item CCNc1nc(NC(C)C(C)C)nc(SC)n1 (configuration not stated)
Response line: 0.997

Prompt line: What growth AUC value was documented for this compound, O=C(O)C(F)(F)C(F)(F)C(F)(F)C(F)(F)C(F)(F)C(F)(F)C(F)(F)C(F)(F)F ?
Response line: 1

Prompt line: Could you tell me which growth AUC is on file for CCOP(=O)(OCC)OP(=O)(OCC)OCC ?
Response line: 1.02

Prompt line: So what does the record say about growth AUC for ClC1=C(Cl)C2(Cl)C3C4C=CC(C4)C3C1(Cl)C2(Cl)Cl (configuration not stated) ?
Response line: 1

Prompt line: Need growth AUC, item CNC(=O)O/N=C(\SC)C(=O)N(C)C
Response line: 0.979

Prompt line: Return reported growth AUC; argument: COP(=O)(OC)Oc1ccc(S(C)(=O)=O)c(C)c1
Response line: 0.998
